Molecular target: guinea pig atrium (β1) (Cavia porcellus, UniProt H0W3H1)
Construct: Spontaneously beating right atria were dissected from guinea-pigs; from tissue; host or cells: guinea-pig right atrium (strip including the sinoatrial node)
Sequence (H0W3H1 1-470): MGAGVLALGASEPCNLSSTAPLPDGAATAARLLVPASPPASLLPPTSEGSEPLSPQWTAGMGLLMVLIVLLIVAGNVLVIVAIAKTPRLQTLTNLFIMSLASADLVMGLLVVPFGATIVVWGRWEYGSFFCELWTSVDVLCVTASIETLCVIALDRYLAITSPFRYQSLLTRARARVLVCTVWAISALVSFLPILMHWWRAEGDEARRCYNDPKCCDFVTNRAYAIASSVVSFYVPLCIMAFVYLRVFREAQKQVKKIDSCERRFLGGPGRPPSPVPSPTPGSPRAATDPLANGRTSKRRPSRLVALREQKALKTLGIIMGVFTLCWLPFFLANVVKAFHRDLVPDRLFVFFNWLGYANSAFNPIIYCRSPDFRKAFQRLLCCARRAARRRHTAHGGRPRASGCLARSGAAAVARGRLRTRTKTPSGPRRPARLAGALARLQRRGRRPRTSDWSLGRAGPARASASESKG
Experiment: Guinea-pig right atrium test: inhibition of isoprenaline-induced increase in heart rate (β1-adrenergic receptor blocking activity, in vitro)
Details: isolated right atrium, 30 min incubation, 37.5° C., estimated graphically, read-out: ED50 value on guinea pig atrium (β1) (converted)

| Compound | Unit | Qualifier | IC50 |
| --- | --- | --- | --- |
| Cc1ccc2c(c1)OC(C(O)CNCC(O)C1CCc3ccccc3O1)CC2 (stereo not drawn) [Compound 97] | nM | = | 1.85 |
| OC(CNCC(O)C1CCc2ccccc2O1)C1CCc2ccccc2O1 (stereo not drawn) [Compound 76] | nM | = | 2.3 |
| CS(=O)(=O)Nc1ccc2c(c1)CCC(C(O)CNCC(O)C1CCc3ccccc3O1)O2 (stereo not drawn) | nM | = | 136 |
| Cc1ccc2c(c1)CCC(C(O)CNCC(O)C1CCc3cc(C)ccc3O1)O2 (stereo not drawn) [Compound 113] | nM | = | 6.29 |
| Cc1ccc2c(c1)CCC(C(O)CNCC(O)C1CCc3ccccc3O1)O2 (stereo not drawn) [Compound 90] | nM | = | 1.04 |
| Cc1ccc2c(c1)OC(C(O)CNCC(O)C1CCc3ccccc3O1)CC2 (stereo not drawn) [Compound 99] | nM | = | 1.64 |
| CC1(C(O)CNCC(O)C2CCc3ccccc3O2)CCc2ccccc2O1 (stereo not drawn) [Compound 140, monohydrate] | nM | ≤ | 6.52 |
| OC(CNCC(O)C1CCc2ccccc2O1)C1CCc2ccccc2O1 (stereo not drawn) [Compound 138] | nM | = | 27.1 |
| OC(CNCC(O)C1CCc2cc(Br)ccc2O1)C1CCc2cc(Br)ccc2O1 (stereo not drawn) | nM | = | 75.9 |

* * *

Biological target: guinea pig trachea (β2) (Cavia porcellus, UniProt Q8K4Z4)
Construct: The trachea was dissected from guinea-pigs; from tissue; host or cells: guinea-pig tracheal rings (tracheal smooth muscle)
Sequence (Q8K4Z4 whole entry): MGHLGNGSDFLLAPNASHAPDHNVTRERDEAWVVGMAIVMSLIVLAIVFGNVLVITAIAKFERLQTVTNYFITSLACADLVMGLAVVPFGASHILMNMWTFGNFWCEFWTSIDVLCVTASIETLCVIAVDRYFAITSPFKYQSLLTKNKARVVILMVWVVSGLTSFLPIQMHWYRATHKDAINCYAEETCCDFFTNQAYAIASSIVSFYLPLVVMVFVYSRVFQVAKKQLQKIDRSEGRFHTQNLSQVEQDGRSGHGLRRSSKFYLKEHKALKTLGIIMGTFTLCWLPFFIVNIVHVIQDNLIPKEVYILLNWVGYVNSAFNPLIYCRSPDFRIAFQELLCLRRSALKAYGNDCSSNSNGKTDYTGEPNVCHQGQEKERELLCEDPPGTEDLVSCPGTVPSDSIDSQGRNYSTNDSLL
Assay: Guinea-pig tracheal ring test: inhibition of isoprenaline-induced relaxation (β2-adrenergic receptor blocking activity, in vitro)
Settings: tracheal ring, methacholine 1 μg/ml, isoprenaline 0.08 μg/ml, 30 min, 35° C., probit analysis; read-out: ED50 value on guinea pig trachea (β2) (converted)

| Compound | Qualifier | IC50 / µM |
| --- | --- | --- |
| N#Cc1ccc2c(c1)CCC(C(O)CNCC(O)C1CCc3ccccc3O1)O2 (stereo not drawn) | > | 1.6 |
| Cc1ccc2c(c1)OC(C(O)CNCC(O)C1CCc3ccccc3O1)CC2 (stereo not drawn) [Compound 99] | ≥ | 26.1 |
| Cc1ccc2c(c1)OC(C(O)CNCC(O)C1CCc3ccccc3O1)CC2 (stereo not drawn) [Compound 97] | = | 13 |
| CC(O)(CNCC(C)(O)C1CCc2ccccc2O1)C1CCc2ccccc2O1 (stereo not drawn) | = | 12.6 |
| Oc1ccc2c(c1)CCC(C(O)CNCC(O)C1CCc3ccccc3O1)O2 (stereo not drawn) | = | 0.804 |
| OC(CNCC(O)C1CCc2ccccc2O1)C1CCc2ccccc2O1 (stereo not drawn) [Compound 88] | ≥ | 27.1 |
| OC(CNCC(O)C1CCc2ccccc2O1)C1CCc2ccccc2O1 (stereo not drawn) [Compound 74] | = | 8.12 |
| OC(CNCC(O)C1CCc2ccccc2O1)C1CCc2ccccc2O1 (stereo not drawn) [Compound 76] | = | 5.95 |
| OC(CNCC(O)C1CCc2ccccc2O1)C1CCc2ccccc2O1 (stereo not drawn) [Compound 81] | = | 1.71 |
